# TEST_TARGET: N-terminal HiBiT tagged BCL6 (Homo sapiens)
# Construct: expressed in transfected cells; host or cells: HT1080 (ATCC CCL-121), stably transduced with lentivirus pLV-UBC-N-HiBiT-BCL6-PGK-puro
# RUN_DESCRIPTION: HiBiT based degradation assay
# Assay type: cell-based
# MEASUREMENT_CONDITIONS: HT1080 cells expressing N-terminal HiBiT tagged BCL6; 5 hours of incubation; BCL6 degradation normalized with DMSO control
READOUT: Ymin (5 hr)

MOLECULE	OBSERVED_RESULT
CNC(=O)COc1cc2cc(Nc3nc(N4CCN(CC5CCN(c6ccc7c(C8CCC(=O)NC8=O)nn(C)c7c6)CC5)[C@H](CO)C4)ncc3Cl)cnc2n(C(C)C)c1=O (some centres unmarked) [Compound 153b]	+++ (30% ≤ Ymin < 50%)
CNC(=O)COc1cc2cc(Nc3nc(N4CCC(CN5CCN(c6ccc7c(C8CCC(=O)NC8=O)nn(C)c7c6)C[C@H]5C)CC4)ncc3Cl)cnc2n(C(C)C)c1=O (some centres unmarked) [Compound 215a]	+++ (30% ≤ Ymin < 50%)
CNC(=O)COc1cc2cc(Nc3nc(N4CC[C@H](CN5CCN(c6cccc7c(C8CCC(=O)NC8=O)nn(C)c67)CC5)[C@@H](C)C4)ncc3Cl)cnc2n(C(C)C)c1=O (some centres unmarked) [Compound 177d]	++++ (Ymin < 30%)
CNC(=O)COc1cc2cc(Nc3nc(N4CCC(CN5[C@@H](C)CN(c6cccc7c(C8CCC(=O)NC8=O)nn(C)c67)C[C@@H]5C)CC4)ncc3Cl)cnc2n(C(C)C)c1=O (some centres unmarked) [Compound 197b]	++++ (Ymin < 30%)
CNC(=O)COc1cc2cc(Nc3nc(N4CCN(CC5CCN(c6cccc7c(C8CCC(=O)NC8=O)nn(C)c67)CC5)[C@H](CO)C4)ncc3Cl)cnc2n(C(C)C)c1=O (some centres unmarked) [Compound 146a]	++++ (Ymin < 30%)
CNC(=O)COc1cc2cc(Nc3nc(N4CCN(C[C@@H]5CCN(c6ccc7c(C8CCC(=O)NC8=O)nn(C)c7c6)C5)[C@@H](C)C4)ncc3Cl)cnc2n(C(C)C)c1=O (some centres unmarked) [Compound 216b]	+++ (30% ≤ Ymin < 50%)
CNC(=O)COc1cc2cc(Nc3nc(N4CCC(CN5CCN(c6cccc7c(C8CCC(=O)NC8=O)nn(C)c67)[C@@H](C)C5)CC4)ncc3F)cnc2n(C(C)C)c1=O (some centres unmarked) [Compound 210a]	++++ (Ymin < 30%)
CNC(=O)COc1cc2cc(Nc3nc(N4CC[C@H](CN5CCN(c6ccc7c(C8CCC(=O)NC8=O)nn(C)c7c6)CC5)C4)ncc3Cl)cnc2n(C(C)C)c1=O (some centres unmarked) [Compound 218b]	+++ (30% ≤ Ymin < 50%)
CNC(=O)COc1cc2cc(Nc3nc(N4CCC(CN5CCN(c6cccc7c(C8CCC(=O)NC8=O)nn(C)c67)CC5)CC4)ncc3Cl)cnc2n(C)c1=O (centres unmarked)	++++ (Ymin < 30%)
CNC(=O)COc1cc2cc(Nc3nc(N4CCN(C(=O)N5CCN(c6cccc7c(C8CCC(=O)NC8=O)nn(C)c67)CC5)CC4)ncc3Cl)cnc2n(C(C)C)c1=O (centres unmarked)	++++ (Ymin < 30%)
CNC(=O)COc1cc2cc(Nc3nc(N4CCC(CN5CCN(c6cccc7c(C8CCC(=O)NC8=O)nn(C)c67)C[C@@H]5C)CC4)ncc3Cl)cnc2n(C(C)C)c1=O (some centres unmarked) [Compound 192a]	++++ (Ymin < 30%)
